- TESTED TARGET: purified human IDO protein (Homo sapiens)
- Construct: 2 extra amino acids (linker from the BglII cloning site of pQE70); made in house; host or cells: E. coli M15(pREP4) with plasmid pQE70-hIDO
- Sequence (P14902 whole entry P110S/E119G): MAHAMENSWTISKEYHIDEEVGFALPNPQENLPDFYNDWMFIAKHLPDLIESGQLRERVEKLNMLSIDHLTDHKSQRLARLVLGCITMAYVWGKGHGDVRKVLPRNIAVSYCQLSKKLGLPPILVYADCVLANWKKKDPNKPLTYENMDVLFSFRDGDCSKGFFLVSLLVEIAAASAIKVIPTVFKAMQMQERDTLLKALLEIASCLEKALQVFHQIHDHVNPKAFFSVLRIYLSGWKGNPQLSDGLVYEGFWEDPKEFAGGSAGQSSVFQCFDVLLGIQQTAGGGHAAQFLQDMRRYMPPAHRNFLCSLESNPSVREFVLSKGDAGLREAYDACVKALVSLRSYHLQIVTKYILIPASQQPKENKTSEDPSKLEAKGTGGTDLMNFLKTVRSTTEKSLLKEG
- MEASUREMENT NOTES: Enzymatic IDO assay (kynurenine production, absorbance at 480 nm)
- Assay type: biochemical
- STUDY CONDITIONS: recombinant human IDO; values reported in ranges; read-out: hIDO IC50
pIC50: −log10 of the molar value.
Listing: pIC50 of selected molecules

[
  {
    "MOLECULE": "CCOC(=O)Oc1ccc(Br)cc1-c1cn(C(=O)OCC)cn1",
    "TESTED TARGET": "purified human IDO protein (Homo sapiens)",
    "ASSAY READOUT": "pIC50",
    "OBSERVED MEASUREMENT": "4.00 to 5.00"
  },
  {
    "MOLECULE": "c1ccc(Nc2nc3ccc(CCOc4ccccc4-c4c[nH]cn4)cc3o2)cc1",
    "TESTED TARGET": "purified human IDO protein (Homo sapiens)",
    "ASSAY READOUT": "pIC50",
    "OBSERVED MEASUREMENT": "5.00 to 6.00"
  },
  {
    "MOLECULE": "c1ccc2c(c1)NCn1cncc1-2 [compound 1114, 5,6-dihydroimidazo[1,5-c]quinazoline]",
    "TESTED TARGET": "purified human IDO protein (Homo sapiens)",
    "ASSAY READOUT": "pIC50",
    "OBSERVED MEASUREMENT": "< 4.00"
  },
  {
    "MOLECULE": "Oc1c(-c2cnc[nH]2)ccc(F)c1Cl",
    "TESTED TARGET": "purified human IDO protein (Homo sapiens)",
    "ASSAY READOUT": "pIC50",
    "OBSERVED MEASUREMENT": "4.00 to 5.00"
  },
  {
    "MOLECULE": "Oc1cccc(OCCc2ccncc2)c1-c1cnc[nH]1",
    "TESTED TARGET": "purified human IDO protein (Homo sapiens)",
    "ASSAY READOUT": "pIC50",
    "OBSERVED MEASUREMENT": "4.00 to 5.00"
  },
  {
    "MOLECULE": "c1ccc(OCc2cccc(-c3c[nH]cn3)c2)cc1",
    "TESTED TARGET": "purified human IDO protein (Homo sapiens)",
    "ASSAY READOUT": "pIC50",
    "OBSERVED MEASUREMENT": "4.00 to 5.00"
  },
  {
    "MOLECULE": "Oc1ccccc1-c1cnco1",
    "TESTED TARGET": "purified human IDO protein (Homo sapiens)",
    "ASSAY READOUT": "pIC50",
    "OBSERVED MEASUREMENT": "4.00 to 5.00"
  },
  {
    "MOLECULE": "O=C(Nc1ccc(CCOc2ccccc2-c2c[nH]cn2)c(Cl)c1)C1CCCCN1 (centres unmarked)",
    "TESTED TARGET": "purified human IDO protein (Homo sapiens)",
    "ASSAY READOUT": "pIC50",
    "OBSERVED MEASUREMENT": "5.00 to 6.00"
  }
]

Lab book: pIC50 of NC(CCc1ccccc1-c1c[nH]cn1)C(=O)O (centres unmarked) noted as < 4.00

Looking up O=C(Cc1cscn1)Nc1ccc(CCOc2ccccc2-c2c[nH]cn2)cc1 , I found its pIC50 recorded as 5.00 to 6.00

// CC(Oc1ccccc1-c1c[nH]cn1)c1ccccc1 (centres unmarked) : pIC50 value = 4.00 to 5.00
